- Assay Overview: Selectivity ratio of IC50 for human WI38 cells to IC50 for Trypanosoma brucei brucei 221
- Assay type: toxicity
- Stated Conditions: read-out: Ratio IC50
Measured Parameter: selectivity ratio

// field: selectivity ratio; key: CC[C@@H](C)[C@H](C(=O)N1CCC[C@H]1C(=O)N1C(=O)C=C(OC)[C@@H]1C(C)C)N(C)C(=O)[C@@H]1CCCN1C(=O)[C@H](C(C)C)N(C)C(=O)[C@@H](Cc1ccccc1)NC(=O)[C@H](Cc1ccccc1)N(C)C ; value = > 10

---

- Assay Overview: Selectivity ratio of IC50 for human WI38 cells to IC50 for Trypanosoma brucei rhodesiense IL-1501
- Type: toxicity
- Stated Conditions: read-out: Ratio IC50
Measured Parameter: selectivity ratio

// field: selectivity ratio; key: CC[C@@H](C)[C@H](C(=O)N1CCC[C@H]1C(=O)N1C(=O)C=C(OC)[C@@H]1C(C)C)N(C)C(=O)[C@@H]1CCCN1C(=O)[C@H](C(C)C)N(C)C(=O)[C@@H](Cc1ccccc1)NC(=O)[C@H](Cc1ccccc1)N(C)C ; value = > 10
